- method_summary: protease stability score; higher = more stable; yeast display proteolysis, trypsin and chymotrypsin;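 also: relative to predicted unfolded state with 0 unfolded-like and 1 meaning tenfold more protease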
Provide the recorded protease stability score for the entries that follow.

Worked cases, answers included:
Challenge: // Input: `DEEEKSLREMMRQFVEHLETGNFEEIEKMADPNARVRIDGRDFVGREEWHKMFIHLHKHLRLEDSHIHHIDFQGNKIHIHGHIHVVVDGKREHRHFHVIIRKVNGRWTIEEMYIE` . Output its protease stability score only.
Response given: 1.06

Challenge: // Input: `SEDTEKIRKFEELLIRLLETGDFDTLTRLLDPHVRYVYNGQDFHGWEFLLHYLRELGVKHFHFRDFRIQGDWAHIDSEVVVGDKHYKTRIVLLKFDGRWRLHMIEVV` . Output its protease stability score only.
Response given: 2.44

Challenge: // Input: `SDLDHRLRKLAEDLSRILETGNWRLMHKLADPNVKEDINGVEFHGRELLVKWLEDLLKELRVHFRVDHYDIQGNFLRVEITNNVFINGVQKVRDERLEVNMFDGKEKENRVRVE` . Output its protease stability score only.
Response given: 0.717

Challenge: // Input: `DEENKSMEEMIRLLTEALRTGDFELIHHLADPRMRILIGDKELHGWESWAQFVVKLGVKHTRIQIDDFRIIDGRINLHTHMEIDIDGRRTSSHTHMETIKVDGRWLITVLKIR` . Output its protease stability score only.
Response given: 1.1

Challenge: // Input: `DEITETAERLLRLWVHNFETGNWKKMVDLIDPNARLDVNGRHIHGWEEIAKHLTDELREWRIREIRIRDVKFIDGVNHTHIESDIEYDGRRDRTEMRIIIVVVNGRIKSVKFEIL` . Output its protease stability score only.
Response given: 1.2

Record protease stability score for all entries; do not skip any.
1. DEDREAAEFVVEHLLRALSTGNEEEFLSLLDPTVKWEIDGREYHGRELVSKILHEIRIKTTEFRSTRHEYQGDYLKLDGILHTTVEIDGKRKHLDVNLHMLILKYDGRWLLKSMSVR
2. TDLKEYVERMLELLRKAIETGDETTLTKLVDPHVRLEVNGREFHGWKFWHMIVREIRMRDLELHHVEIQGDKMEVDGTLHLEINGKDDYRKVRLIAEKFDGRWVFTSVHFE

Response given:
1.53
1.72

Challenge: // Input: `DEDTEQVERALHLWVKLVQTGNEEVIRHLLDPNVRIIVNGVDYHGRSALDELQRRVDVNTWKRVRLHDASVYNGRMHIDGEIDTQEIVGDKRIIIHTKVDMVSSKVNGKWIFHSMIFH` . Output its protease stability score only.
Response given: 0.848

* * *

Provide the recorded protease stability score for the entries that follow.
- method_summary: protease stability score; higher = more stable; yeast display proteolysis, trypsin and chymotrypsin;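 also: relative to predicted unfolded state with 0 unfolded-like and 1 meaning tenfold more protease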
Give bare numbers.

Worked cases, answers included:
Challenge: // Input: `DEDLEESHYAIEYLIRLFETGDWDTVDRFFDPRTRLRVNGKNHHGREEVTEFVEDILKRYDHKQFTFTHVEFQGEKIILHGKLHLDINGVHFEHDFILIIKKIDGRWYVDEIHIS` . Output its protease stability score only.
Response given: 1.39

Challenge: // Input: `TEIEKLLDEIVKHFLWAFLTGDWDKVAKLADPNTKSVWNGVDLVGMHLNEHVLEMLIRRYDVIHSIHLRSYRTQGDKLHVDSELNMIQGDKEETVRVRITLHVVNGRLKSIEVRIE` . Output its protease stability score only.
Response given: -0.002

Record protease stability score for all entries; do not skip any.
1. DEDEELARRHLKRLMEIWNTGDEDSHRHLADPHMRYIYNGKQTHGRQVSAKILLEMRIDHLEIKRMHLVDGKLEIDGRMEGEVNGRKDTVEVIIHNEKVNGRWIIRELQFG
2. DNEDKLAEQMLKEILELWHTGDEEKWSNLADPNTRIHINGQESHGRDNFHKFWEDFHSTLGIDVLKFSLKDFRIQGDKSRVDVETKVKQGDKSEHYRTFLIFIIVDGRVKTIEIRIK
3. DELHETVEHAMERMIESSKTGDWRSLTKLMDPNVRMHIDGVDLIGWEIAVRVILEIRIEHVHIHHIDVQGDKMEVDVSVRIHFNGKHEDRQIVLFAEKVDGRWINRSVEIR
4. DEEKERMEELLRLWVEAVRTGDEETLHKLMDPDVRIEYGDKDHHGREEMHRMMREWYERVDVINTYHVRRIKIVDGKARVDAELDGTIDGKRVIFREILISSKYNGQWTVTSISIK
5. TEEEEAAKRVFRLLLENAKTGDEDHLRELIDPNVRIHVDGRTLIGMEQFKRFWSEMRVHHWDQKSVDFVNGRVHSDTIINSHVDGQTIHIDVRIIITKIDGQWVVESFSVS

Response given:
1. 0.503
2. 0.703
3. 1
4. 1.43
5. 1.17
